- experimental_target: p38-α kinase (Homo sapiens)
- Sequence (Q16539 whole entry): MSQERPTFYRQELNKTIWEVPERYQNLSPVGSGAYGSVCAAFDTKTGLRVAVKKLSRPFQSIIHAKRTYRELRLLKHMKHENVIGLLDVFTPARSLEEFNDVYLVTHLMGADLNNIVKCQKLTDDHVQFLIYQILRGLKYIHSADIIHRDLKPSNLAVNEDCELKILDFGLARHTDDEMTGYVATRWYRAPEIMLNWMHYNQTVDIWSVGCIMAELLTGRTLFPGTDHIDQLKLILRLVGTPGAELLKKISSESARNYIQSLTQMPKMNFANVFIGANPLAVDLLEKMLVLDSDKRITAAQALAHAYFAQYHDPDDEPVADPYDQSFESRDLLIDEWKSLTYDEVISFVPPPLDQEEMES
outcome_measure: IC50 (nM)

1. COc1cccc(C(=O)N2CCC(Cc3ccccc3)CC2)c1
2. COc1ccc(C(=O)N2CCC(Cc3ccccc3)CC2)cc1
Among 1 and 2 , which shows a numerically higher IC50 result? State the label of the item chosen.
1

----------
- experimental_target: p38-α kinase (Homo sapiens)
- run_conditions: 15 μM compound
outcome_measure: % Inhibition of p38α kinase at 15 μM (%)

Consider the worked cases shown below.
{"columns": ["smiles_repr", "quantity_unit", "% Inhibition of p38α kinase at 15 μM"],
 "data": [
  ["O=C(c1cccc(Cl)c1)N1CCC(Cc2ccccc2)CC1", "%", 80],
  ["O=C(c1ccc(C(F)(F)F)cc1)N1CCC(Cc2ccccc2)CC1", "%", 66],
  ["O=C(c1ccc(Br)cc1)N1CCC(Cc2ccccc2)CC1", "%", 96],
  ["Cc1cccc(C(=O)N2CCC(Cc3ccccc3)CC2)c1", "%", 90],
  ["O=C(c1ccccc1C(F)(F)F)N1CCC(Cc2ccccc2)CC1", "%", 98],
  ["O=C(c1cccc(Br)c1)N1CCC(Cc2ccccc2)CC1", "%", 74],
  ["Cc1ccc(C(=O)N2CCC(Cc3ccccc3)CC2)cc1", "%", 97],
  ["O=C(c1cccc(F)c1)N1CCC(Cc2ccccc2)CC1", "%", 92],
  ["O=C(c1ccc(Cl)cc1)N1CCC(Cc2ccccc2)CC1", "%", 85],
  ["O=C(c1ccccc1F)N1CCC(Cc2ccccc2)CC1", "%", 98]
]}

I. O=C(c1ccc(F)cc1)N1CCC(Cc2ccccc2)CC1
II. O=C(c1cccc(C(F)(F)F)c1)N1CCC(Cc2ccccc2)CC1
Among I and II , which shows a numerically higher % Inhibition of p38α kinase at 15 μM result? State the label of the item chosen.
I
